Where these numbers come from: patent US10676429B2

# Test system: HBV
# assay name: Anti-HBV activity in HepG2.117 cell line (Tet-off, intracellular HBV DNA, realtime PCR)
# Format: cell-based
# test conditions: HepG2.117 cells, 3 days of treatment, intracellular HBV DNA; read-out: HepG2 117 EC50
measured parameter: pEC50
Answers are plain numbers, as −log10 of the molar value.

Consider the following illustrative entries.
COC(=O)N1CCCC(NS(=O)(=O)c2cccc(C(=O)Nc3ccc(F)c(C)c3)c2)C1 (racemic) [Compound 159b]: 6.64
COC(=O)N1CCCC(NS(=O)(=O)c2cccc(C(=O)Nc3ccc(F)c(C)c3)c2)C1 (racemic) [Compound 159a]: 6.07
Cc1cc(NC(=O)c2cccc(S(=O)(=O)NC3CCC(O)C3)c2)ccc1F (single isomer, unassigned) [Compound 145d]: 6.19
Cc1cc(NC(=O)c2cccc(S(=O)(=O)NC3CCCC(O)C3)c2)ccc1F (single isomer, unassigned) [Compound 134d]: 5.91
Cc1cc(NC(=O)c2cccc(S(=O)(=O)NC3CC(=O)N(C)C3)c2)ccc1F (racemic) [Compound 179b]: 5.74

Required: pEC50, one value per compound below.
1. Cc1cc(NC(=O)c2cccc(S(=O)(=O)NC3CC(=O)N(C)C3)c2)ccc1F (racemic) [Compound 179a]
2. Cc1cc(NC(=O)c2cccc(S(=O)(=O)NC3CCCC(O)C3)c2)ccc1F (single isomer, unassigned) [Compound 134b]

Result:
[6.60, 6.70]

* * *

# System: HBV
# assay name: Anti-HBV activity in stable transfected HepG2.2.15 cell line (HBV DNA from secreted virions, realtime PCR)
# Assay type: cell-based
# test conditions: Hepatitis B virus, HepG2.2.15, 144 h, HepG2.2.15 cells, 6 days of treatment, secreted virion HBV DNA; read-out: HepG2 2.15 EC50
measured parameter: pEC50
Give bare numbers, as −log10 of the molar value.

Consider the following illustrative entries.
Cc1cc(NC(=O)c2cccc(S(=O)(=O)N[C@H](C)[C@H](O)c3ccccc3)c2)ccc1F [Compound 142]: 6.85
CC1(NS(=O)(=O)c2ccc(Cl)c(C(=O)Nc3ccc(F)c(C(F)F)c3)c2)COC1 [Compound 235]: 6.08
COC(=O)N1CCC(NS(=O)(=O)c2cccc(C(=O)Nc3ccc(F)c(C)c3)c2)C1 (centres unmarked) [Compound 158]: 6.82

Required: pEC50, one value per compound below.
1. Cc1ccc(S(=O)(=O)NC2(C)COC2)c(F)c1C(=O)Nc1ccc(F)c(F)c1 [Compound 194]
2. Cc1cc(NC(=O)c2cccc(S(=O)(=O)N[C@@H](C)C(C)C)c2)ccc1F [Compound 151]
3. Cc1cc(NC(=O)c2cccc(S(=O)(=O)NC3CCCC3)c2)ccc1F [Compound 11]
4. O=C(Nc1cc(F)cc(F)c1)c1cccc(S(=O)(=O)NC2CCCC2)c1 [Compound 15]

Result:
1. 6.42
2. 6.18
3. 7.00
4. 6.55

Required: pEC50, one value per compound below.
1. Cc1cc(NC(=O)c2cccc(S(=O)(=O)N[C@H]3CCC[C@@H]3O)c2)ccc1F [Compound 138]
2. O=C(Nc1ccc(F)cc1)c1cccc(S(=O)(=O)N2CCCCC2)c1 [Compound 35]
3. O=C(Nc1ccc(F)cc1)c1cccc(S(=O)(=O)NC2COC2)c1 [Compound 3]

Result:
1: 5.89; 2: 5.35; 3: 5.68
